- Test system: Human TRPV3 (Homo sapiens)
- Construct: expressed in transfected cells; host or cells: CHO cells (G-418 selection)
- Experimental details: Screening for TRPV3 antagonist using the 45Calcium uptake assay (inhibition of 2-APB induced cellular uptake of radioactive calcium)
- Assay type: cell-based
- Experimental context: 1.0 μM test compound; human TRPV3 expressing CHO cells; 2-APB 500 μM; read-out: Percentage inhibition at 1.0 μM
Measured metric: inhibition at 1 µM (%)

Compound	Test system	Reading unit	Reported
COc1cccc(/C=C/c2nc3sccn3c(=O)c2-c2ccc(C#N)cc2)c1OCC1CCC1	Human TRPV3 (Homo sapiens)	%	73

I = CCOCCOc1c(/C=C/c2nc3sc4ccccc4n3c(=O)c2-c2ccc(C#N)cc2)cccc1OC
II = CCCOc1cccc(/C=C/c2nc3sccn3c(=O)c2-c2ccc(OC(F)(F)F)cc2)c1OCC1CC1
Inquiry: Form: Entry with minimum inhibition at 1 µM (choose one): I / II Kindly give the label for the entry you pick.
Reply text: II

---

- Test system: Human TRPV3 (Homo sapiens, UniProt Q8NET8)
- Construct: expressed in transfected cells; host or cells: CHO cells (G-418 selection)
- Experimental details: Screening for TRPV3 antagonist using the 45Calcium uptake assay (inhibition of 2-APB induced cellular uptake of radioactive calcium)
- Assay type: cell-based
- Experimental context: 1.0 μM test compound; human TRPV3 expressing CHO cells; 2-APB 500 μM; read-out: Percentage inhibition at 1.0 μM
Measured metric: inhibition at 1 µM (%)

Compound	Measured metric	Reading unit	Reported
COc1ccc(/C=C/c2nc3sccn3c(=O)c2-c2ccc(C(F)(F)F)cc2)cc1OCC1CC1	inhibition at 1 µM	%	39.6
COc1cccc(/C=C/c2nc3sccn3c(=O)c2-c2ccc(N(C)C)cc2)c1OCC(C)(C)C	inhibition at 1 µM	%	62.7
O=c1c(-c2ccc(C(F)(F)F)cc2)c(/C=C/c2cccnc2)nc2sccn12	inhibition at 1 µM	%	4.11
COc1cccc(/C=C/c2nc3sccn3c(=O)c2-c2ccc(OCC3CC3)cc2)c1OCC1CC1	inhibition at 1 µM	%	43.7
CCOCCOc1c(/C=C/c2nc3sccn3c(=O)c2-c2ccc(OC(F)(F)F)cc2)cccc1OC	inhibition at 1 µM	%	89.9
COc1cccc(/C=C/c2nc3sccn3c(=O)c2-c2ccc(C(F)(F)F)cc2)c1OCC1CC1	inhibition at 1 µM	%	85.3
COc1cccc(/C=C/c2nc3sccn3c(=O)c2-c2ccc(OC(F)(F)F)cc2)c1OC1CCCC1	inhibition at 1 µM	%	75.8
O=c1c(-c2ccc(C(F)(F)F)cc2)c(/C=C/c2ccccc2OCC2CC2)nc2sccn12	inhibition at 1 µM	%	36.3

A = COCCOc1c(/C=C/c2nc3sc4ccccc4n3c(=O)c2-c2ccc(C#N)cc2)cccc1OC
B = COc1cccc(/C=C/c2nc3sc4ccccc4n3c(=O)c2-c2ccc(OC(F)(F)F)cc2)c1OCC1CC1
Inquiry: Form: Entry with minimum inhibition at 1 µM (choose one): A / B Kindly give the label for the entry you pick.
Reply text: B

---

- Test system: Human TRPV3 (Homo sapiens)
- Construct: expressed in transfected cells; host or cells: CHO cells (G-418 selection)
- Sequence (Q8NET8 1-790): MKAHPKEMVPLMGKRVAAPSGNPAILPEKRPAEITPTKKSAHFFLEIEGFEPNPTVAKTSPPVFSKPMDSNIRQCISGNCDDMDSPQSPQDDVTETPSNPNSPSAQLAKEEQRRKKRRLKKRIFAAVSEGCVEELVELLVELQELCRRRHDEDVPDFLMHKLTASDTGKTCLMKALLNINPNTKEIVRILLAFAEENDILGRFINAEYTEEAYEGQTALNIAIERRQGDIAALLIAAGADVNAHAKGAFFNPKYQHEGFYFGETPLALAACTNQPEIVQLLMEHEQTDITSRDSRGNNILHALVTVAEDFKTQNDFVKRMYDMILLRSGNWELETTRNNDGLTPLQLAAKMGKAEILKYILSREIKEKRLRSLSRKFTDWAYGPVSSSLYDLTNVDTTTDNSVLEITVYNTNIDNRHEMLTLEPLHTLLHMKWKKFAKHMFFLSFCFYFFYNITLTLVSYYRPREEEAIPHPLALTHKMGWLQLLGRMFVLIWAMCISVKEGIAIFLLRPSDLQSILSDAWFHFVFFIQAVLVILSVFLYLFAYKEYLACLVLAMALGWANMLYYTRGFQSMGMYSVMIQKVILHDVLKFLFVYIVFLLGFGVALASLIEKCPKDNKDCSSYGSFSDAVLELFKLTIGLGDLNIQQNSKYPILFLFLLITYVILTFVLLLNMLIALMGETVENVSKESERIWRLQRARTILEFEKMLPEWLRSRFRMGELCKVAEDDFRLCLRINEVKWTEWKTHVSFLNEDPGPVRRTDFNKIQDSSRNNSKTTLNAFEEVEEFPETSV
- Experimental details: Screening for TRPV3 antagonist using the 45Calcium uptake assay (inhibition of 2-APB induced cellular uptake of radioactive calcium)
- Format: cell-based
- Experimental context: 1.0 μM test compound; human TRPV3 expressing CHO cells; 2-APB 500 μM; read-out: Percentage inhibition at 1.0 μM
Measured metric: inhibition at 1 µM (%)

Compound	Reading unit	inhibition at 1 µM
CCCCCOc1c(/C=C/c2nc3sccn3c(=O)c2-c2ccc(C#N)cc2)cccc1OC	%	74.8

A = CCCOc1c(/C=C/c2nc3sccn3c(=O)c2-c2ccc(C(F)(F)F)cc2)cccc1OC
B = CCOc1cccc(/C=C/c2nc3sccn3c(=O)c2-c2ccc(OC(F)(F)F)cc2)c1OCC1CC1
C = COc1cccc(/C=C/c2nc3sccn3c(=O)c2-c2cccc(C(F)(F)F)c2)c1OCC1CC1
Inquiry: List items by inhibition at 1 µM in falling order. I'd appreciate it if you listed the labels in the requested order.
Reply text: A, B, C
